target: UniProt P08684; assay: Cytochrome P450 (CYP450) Inhibition Assay, CYP3A4 (Vivid fluorescence, BOMCC substrate); conditions: human, P450 Baculosomes (recombinant CYP3A4), probe BOMCC (Vivid substrate)
Structures can show the parent of a compound that is named as a salt.

{"molecule": "N#CCN1C(=O)C2(COc3cc4c(cc32)OCO4)c2c(Cl)cccc21 (stereo not shown)", "inhibition at 10 µM": "< 50%"}
{"molecule": "O=C(NCCc1cccs1)c1ccc(CN2C(=O)C3(COc4cc5c(cc43)CCO5)c3ccccc32)cc1 (stereo not shown)", "inhibition at 10 µM": "> 50%"}
{"molecule": "O=C1N(Cc2ccc(C(F)(F)F)o2)c2c(C(F)(F)F)cccc2C12COc1cc3c(cc12)OCO3 (stereo not shown)", "inhibition at 10 µM": "> 50%"}
{"molecule": "Cc1c(F)cccc1NC(=O)c1ccccc1CN1C(=O)C2(COc3cc4c(cc32)CCO4)c2ccccc21 (stereo not shown)", "inhibition at 10 µM": "> 50%"}
{"molecule": "O=C1N(Cc2ccccn2)c2ccccc2[C@@]12COc1cc3c(cc12)CCO3", "inhibition at 10 µM": "< 50%"}
{"molecule": "O=C1N(CCCOCc2ccccc2)c2ccccc2C12COc1cc3c(cc12)CCO3 (stereo not shown)", "inhibition at 10 µM": "> 50%"}
{"molecule": "O=C1N(Cc2ccc(N3CCOCC3)cc2)c2ccccc2C12COc1cc3c(cc12)CCO3 (stereo not shown)", "inhibition at 10 µM": "> 50%"}
{"molecule": "CCOCCN1C(=O)C2(COc3cc4c(cc32)OCCO4)c2ccccc21 (stereo not shown)", "inhibition at 10 µM": "< 50%"}
{"molecule": "O=C1N(Cc2cnccc2C(F)(F)F)c2ccccc2C12COc1cc3c(cc12)OCCO3 (stereo not shown)", "inhibition at 10 µM": "> 50%"}
{"molecule": "CN(C)C(=O)c1coc(CN2C(=O)C3(COc4cc5c(cc43)CCO5)c3ccccc32)n1 (stereo not shown)", "inhibition at 10 µM": "< 50%"}
{"molecule": "O=C1N(CC2CCNCC2)c2ccccc2C12COc1cc3c(cc12)OCCO3 (stereo not shown) [Example 11.99, hydrochloride]", "inhibition at 10 µM": "< 50%"}
{"molecule": "Cc1cc(CN2C(=O)C3(COc4cc5c(cc43)OCO5)c3ccccc32)c(C)n1C(C)C (stereo not shown)", "inhibition at 10 µM": "> 50%"}
{"molecule": "C[C@@H](CN1C(=O)C2(COc3cc4c(cc32)CCO4)c2ccccc21)OCc1ccccc1 (stereo partly shown)", "inhibition at 10 µM": "> 50%"}
{"molecule": "O=C1N(C[C@H]2CCCO2)c2ccccc2C12COc1cc3c(cc12)CCCC3 (stereo partly shown)", "inhibition at 10 µM": "< 50%"}
{"molecule": "O=C1N(Cc2ccc3nsnc3c2)c2ccccc2C12COc1cc3c(cc12)OCCO3 (stereo not shown)", "inhibition at 10 µM": "> 50%"}
{"molecule": "O=C1N(Cc2noc(C3CC3)n2)c2ccccc2C12COc1cc3c(cc12)OCO3 (stereo not shown)", "inhibition at 10 µM": "> 50%"}

* * *

molecular target: CYP3A4 (Homo sapiens); test: Cytochrome P450 (CYP450) Inhibition Assay, CYP3A4 (Vivid fluorescence, BOMCC substrate); conditions: human, P450 Baculosomes (recombinant CYP3A4), probe BOMCC (Vivid substrate)
Sequence (P08684 whole entry): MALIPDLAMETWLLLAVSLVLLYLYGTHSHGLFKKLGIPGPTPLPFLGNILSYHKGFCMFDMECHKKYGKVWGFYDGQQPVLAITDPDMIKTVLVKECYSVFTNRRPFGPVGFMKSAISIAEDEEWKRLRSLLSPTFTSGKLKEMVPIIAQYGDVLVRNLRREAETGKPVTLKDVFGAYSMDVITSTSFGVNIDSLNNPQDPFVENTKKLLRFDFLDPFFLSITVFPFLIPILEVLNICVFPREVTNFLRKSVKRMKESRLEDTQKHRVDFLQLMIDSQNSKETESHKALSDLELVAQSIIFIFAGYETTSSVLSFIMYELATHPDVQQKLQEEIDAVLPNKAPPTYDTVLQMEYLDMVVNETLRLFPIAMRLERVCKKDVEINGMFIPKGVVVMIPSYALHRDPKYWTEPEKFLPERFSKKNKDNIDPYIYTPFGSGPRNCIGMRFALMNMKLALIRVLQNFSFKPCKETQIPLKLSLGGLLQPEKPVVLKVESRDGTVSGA
readout-label: inhibition at 10 µM

{"compound": "O=C1N(Cc2ncccc2C(F)(F)F)c2ccccc2C12COc1ccc3nonc3c12 (centres unmarked)", "readout-label": "inhibition at 10 µM", "endpoint-value": "> 50%"}
{"compound": "CN1C(=O)C2(COc3cc4c(cc32)CCO4)c2ccccc21 (centres unmarked)", "readout-label": "inhibition at 10 µM", "endpoint-value": "< 50%"}
{"compound": "CC(C)NC(=O)N1CCC(CN2C(=O)C3(COc4cc5c(cc43)CCO5)c3ccccc32)C1 (centres unmarked)", "readout-label": "inhibition at 10 µM", "endpoint-value": "> 50%"}
{"compound": "O=C1N(CC2CCNCC2)c2ccccc2C12COc1cc3c(cc12)CCO3 (centres unmarked)", "readout-label": "inhibition at 10 µM", "endpoint-value": "< 50%"}
{"compound": "Cn1c(CN2C(=O)C3(COc4cc5c(cc43)CCO5)c3ccccc32)nc2ccccc21 (centres unmarked)", "readout-label": "inhibition at 10 µM", "endpoint-value": "> 50%"}
{"compound": "COc1cc(OC)c2c(c1)N(Cc1ccccn1)C(=O)C21COc2cc3c(cc21)OCCO3 (centres unmarked)", "readout-label": "inhibition at 10 µM", "endpoint-value": "> 50%"}
{"compound": "Nc1nc(CN2C(=O)C3(COc4cc5c(cc43)OCO5)c3ccccc32)cs1 (centres unmarked)", "readout-label": "inhibition at 10 µM", "endpoint-value": "> 50%"}
{"compound": "CN1C(=O)C2(COc3cc4c(cc32)OCCO4)c2c(NS(C)(=O)=O)cccc21 (centres unmarked)", "readout-label": "inhibition at 10 µM", "endpoint-value": "< 50%"}

* * *

Listed here are compounds together with their documented melting point.

{"compound": "O=C1N(Cc2ccc(C(F)(F)F)o2)c2cc3c(cc2C12COc1cc4c(cc12)OCCO4)OCCO3 (stereo not shown)", "melting point": "176 to 178 °C"}
{"compound": "NC(=O)c1ccc(CN2C(=O)C3(COc4cc5c(cc43)OCCO5)c3ccccc32)cc1 (stereo not shown)", "melting point": "236 to 238 °C"}
{"compound": "CC(C)CCN1C(=O)[C@]2(COc3cc4c(cc32)CCO4)c2ccccc21", "melting point": "86 to 87 °C"}
{"compound": "O=C1N(CCC(O)C(F)(F)F)c2ccccc2C12COc1cc3c(cc12)CCO3 (stereo not shown)", "melting point": "124 to 126 °C"}

* * *

readout-label: melting point

{"compound": "O=C1Nc2cccc(-c3ccc(Oc4ccccc4)cc3)c2C12COc1cc3c(cc12)OCCO3 (centres unmarked) [Example 3.35]", "readout-label": "melting point", "endpoint-value": "243 to 246 °C"}
{"compound": "O=C1N(C[C@@H]2COCCO2)c2ccccc2[C@]12COc1cc3c(cc12)OCCO3 [Example 8.8]", "readout-label": "melting point", "endpoint-value": "207 to 210 °C"}
{"compound": "O=C1NCC(CN2C(=O)C3(COc4cc5c(cc43)CCO5)c3ccccc32)O1 (centres unmarked) [Example 9.10]", "readout-label": "melting point", "endpoint-value": "197 to 198 °C"}
{"compound": "Cc1nc(-c2cccc(CN3C(=O)C4(COc5cc6c(cc54)OCCO6)c4ccccc43)c2)no1 (centres unmarked) [Example 11.83]", "readout-label": "melting point", "endpoint-value": "90 to 95 °C"}
{"compound": "CN1CCC(CN2C(=O)C3(COc4cc5c(cc43)CCO5)c3ccccc32)CC1 (centres unmarked) [Example 11.10]", "readout-label": "melting point", "endpoint-value": "155 to 158 °C"}
{"compound": "COC(=O)c1ccc(CN2C(=O)C3(COc4cc5c(cc43)OCCO5)c3ccccc32)o1 (centres unmarked) [Example 7.2]", "readout-label": "melting point", "endpoint-value": "88 to 92 °C"}
{"compound": "O=C1N(Cc2ccc(C(F)(F)F)o2)c2cccc(Cl)c2C12COc1cc3c(cc12)CCO3 (centres unmarked) [Example 4.33]", "readout-label": "melting point", "endpoint-value": "166 to 169 °C"}
{"compound": "O=C1N(Cc2ccc(O)cc2)c2ccccc2C12COc1cc3c(cc12)CCO3 (centres unmarked) [Example 17]", "readout-label": "melting point", "endpoint-value": "226 to 227 °C"}
{"compound": "CN1C(=O)C2(COc3cc4c(cc32)OCCO4)c2c(C(N)=O)cccc21 (centres unmarked) [Example 16.72]", "readout-label": "melting point", "endpoint-value": "> 250 °C"}
{"compound": "CC(C)CCN1C(=O)C2(COc3cc4c(cc32)OCCO4)c2ccccc21 (centres unmarked) [Example 4.36]", "readout-label": "melting point", "endpoint-value": "134 to 137 °C"}
{"compound": "CCC(CC)CNC(=O)c1cccc(CN2C(=O)C3(COc4cc5c(cc43)CCO5)c3ccccc32)c1 (centres unmarked) [Example 12.3]", "readout-label": "melting point", "endpoint-value": "105 to 106 °C"}
{"compound": "O=C1N(Cc2ccc(N/C=N\\O)nc2)c2ccccc2C12COc1cc3c(cc12)OCCO3 (centres unmarked) [Example 38]", "readout-label": "melting point", "endpoint-value": "231 to 232 °C"}
{"compound": "O=C1N(Cc2ccc(OCc3ccccc3)cn2)c2ccccc2C12COc1ccc3nonc3c12 (centres unmarked) [Example 9.67]", "readout-label": "melting point", "endpoint-value": "209 to 212 °C"}
{"compound": "O=C1N(C(c2ccccc2)c2ccccc2)c2ccccc2C12COc1cc3c(cc12)CCCO3 (centres unmarked) [Example 2.12]", "readout-label": "melting point", "endpoint-value": "208 to 211 °C"}
{"compound": "Cc1ccc2c(c1)C1(COc3cc4c(cc31)OCCO4)C(=O)N2Cc1ncccc1C(F)(F)F (centres unmarked) [Example 4.115]", "readout-label": "melting point", "endpoint-value": "137 to 139 °C"}
{"compound": "CC(C)(C)OC(=O)N1C(=O)C2(COc3cc4c(cc32)OCCO4)c2ccccc21 (centres unmarked) [Example 18.2]", "readout-label": "melting point", "endpoint-value": "171 to 172 °C"}
{"compound": "CN1CCOC(CN2C(=O)C3(COc4cc5c(cc43)OCCO5)c3ccccc32)C1 (centres unmarked) [Example 11.104]", "readout-label": "melting point", "endpoint-value": "102 to 112 °C"}
